Assay: gradient 5% acetonitrile 3 min, to 50% in 2 min, to 85% in 15 min, held 3 min, 100 µL/min
Details: column: Zorbax Extend-C18 2.1 x 50 mm; eluents: water / acetonitrile, 0.1% formic acid
# maps each entry to its RP-LC retention time
Respond with the bare value in s.

Look over these answered cases.
What does the data say about its RP-LC retention time? Entry: `COc1ccc(-c2cc3nn(CC(=O)Nc4ccc(F)c(Cl)c4)c(=O)n3c(C)n2)cc1`
992

Next entry: CCC(CC)C(=O)N1CCc2c(c(C(=O)N3CCCC(C(=O)Nc4ccccc4)C3)nn2C)C1 (stereo not given)
761

Next entry: `O=C(CSc1nnc(COc2ccccc2)o1)NCc1ccco1`
753

Next entry: `CSc1nnc(-c2nn(C)c3c2CN(C(=O)c2cccc(Cl)c2)CC3)n1C`
737

Next entry: `COCCN(Cc1ccncc1)S(=O)(=O)c1ccc(-c2ccccc2)cc1`
630

Next entry: `Cc1ccc(C)c(Sc2ccc(N3CCC(C(=O)NCc4ccco4)CC3)nn2)c1`
818

Next entry: `O=C(Cc1ccc(Br)cc1)Nc1cc(-c2ccsc2)no1`
983

Next entry: CN1CCC(=C2c3ccccc3C(O)c3ccccc32)CC1 (stereo not given)
665

Next entry: `CCn1cc(C(=O)Nc2ccc(C)c(C)c2)c(S(=O)(=O)N2CCSCC2)n1`
1050

Next entry: `O=C(CCSc1nnnn1-c1ccccc1)Nc1ccc2c(c1)OCO2`
794

More entries:
What does the data say about its RP-LC retention time? Entry: `CCCNC(=O)CCc1nc2ccccc2n(CC(=O)NCc2ccccc2Cl)c1=O`
794

Next entry: `O=C(NC1CCCCC1)N1CCc2nc(-c3ccc(Cl)cc3)ncc2C1`
1050

Next entry: `Cn1ncc2c3ccccc3n(CC(=O)NCCC3=CCCCC3)c2c1=O`
904

Next entry: COC(=O)c1sccc1NC(=O)C1CCCN(c2ncnc3c2nc2n3CCCCC2)C1 (stereo not given)
922

Next entry: `CC(C)n1nnc2cc(C(=O)N(C)CC(=O)Nc3ccc(Cl)cc3)ccc21`
793

Next entry: `CCN1CCN(S(=O)(=O)c2cc(-c3nnc(-c4ccccc4)o3)ccc2OC)CC1`
636

Next entry: O=C(Cc1cccs1)N1CCCCC1c1nncn1-c1ccccc1 (stereo not given)
712

Next entry: Cc1ccc(N2C(=O)CN(S(C)(=O)=O)CC2(C)C(=O)NCc2ccccc2)cc1C (stereo not given)
758

Next entry: `O=C(NCc1cccc(Br)c1)c1nc(Cn2c(=O)oc3ccccc32)no1`
895

Next entry: `CCCOc1ccc(C(=O)Nc2nnc(SCc3nnc(-c4ccccc4)o3)s2)cc1`
1050
